# pEC50 values compiled below
# TARGET OR SYSTEM: TRAP1 enzyme (Homo sapiens, UniProt Q12931)
# Sequence (Q12931 60-704): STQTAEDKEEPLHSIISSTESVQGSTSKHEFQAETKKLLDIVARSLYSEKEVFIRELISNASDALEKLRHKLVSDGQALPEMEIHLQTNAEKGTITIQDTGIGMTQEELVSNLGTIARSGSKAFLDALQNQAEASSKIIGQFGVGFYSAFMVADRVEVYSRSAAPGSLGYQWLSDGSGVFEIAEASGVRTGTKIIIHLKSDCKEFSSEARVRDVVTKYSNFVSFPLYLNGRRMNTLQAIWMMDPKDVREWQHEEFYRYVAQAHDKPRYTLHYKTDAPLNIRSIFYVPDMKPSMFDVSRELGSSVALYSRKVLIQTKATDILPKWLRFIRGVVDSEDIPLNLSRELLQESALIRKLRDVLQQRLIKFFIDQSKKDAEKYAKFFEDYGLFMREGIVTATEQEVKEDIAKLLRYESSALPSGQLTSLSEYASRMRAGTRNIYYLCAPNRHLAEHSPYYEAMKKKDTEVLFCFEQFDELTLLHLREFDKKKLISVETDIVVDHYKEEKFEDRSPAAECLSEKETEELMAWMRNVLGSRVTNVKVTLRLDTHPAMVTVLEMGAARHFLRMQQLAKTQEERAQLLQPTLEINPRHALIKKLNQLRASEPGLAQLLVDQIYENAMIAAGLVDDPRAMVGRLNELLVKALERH
# PROTOCOL: ADP Glo assay of TRAP1 ATPase activity
# Type: biochemical
# MEASUREMENT CONDITIONS: TRAP1 ATPase activation, 150 nM Trap1, 20 μM ATP, geometric mean; read-out: ADP GLO DRC: GeoMean EC50
pEC50: −log10 of the molar value.

ITEM SMILES: COc1ccc(NC(=O)c2ocnc2C(C)C)cc1S(=O)(=O)Nc1ccc(Cl)cc1
RECORDED MEASUREMENT: 4.70 to 5.00

ITEM SMILES: COc1ccc(NC(=O)c2ccc(C(C)(C)C)nc2)cc1S(=O)(=O)Nc1c(C)cccc1C
RECORDED MEASUREMENT: 4.00 to 4.70

ITEM SMILES: COc1ccc(NC(=O)c2ccc3c(Br)nn(C)c3c2)cc1S(=O)(=O)Nc1c(C)cccc1C
RECORDED MEASUREMENT: > 5.00

# next compound below
Per the reported TRAP1 enzyme (Homo sapiens, UniProt Q12931) data, COc1ccc(NC(=O)c2cccc(-c3ccccn3)c2)cc1S(=O)(=O)Nc1c(C)cccc1C has pEC50 of > 5.00

----------
# TARGET OR SYSTEM: TRAP1 enzyme (Homo sapiens)
# PROTOCOL: ADP Glo assay of TRAP1 ATPase activity
# Assay type: biochemical
# MEASUREMENT CONDITIONS: TRAP1 ATPase activation, 150 nM Trap1, 20 μM ATP, geometric mean; read-out: ADP GLO DRC: GeoMean EC50
# EC50 values compiled below

Consider the worked cases shown below.
MOLECULE: Cc1noc(C(C)C)c1C(=O)Nc1ccc(F)c(S(=O)(=O)Nc2ccc(Cl)cc2)c1 [Compound 751]
TARGET OR SYSTEM: TRAP1 enzyme (Homo sapiens)
EC50: 10 to 20 µM
--
MOLECULE: COc1ccc(NC(=O)c2cccc(-n3cnnn3)c2)cc1S(=O)(=O)Nc1c(C)cccc1C [Compound 1259]
TARGET OR SYSTEM: TRAP1 enzyme (Homo sapiens)
EC50: 20 to 100 µM
--
MOLECULE: COc1ccc(NC(=O)c2cccc([C@H](F)c3cccc(F)c3)c2)cc1S(=O)(=O)Nc1c(C)cccc1C [Compound 1034]
TARGET OR SYSTEM: TRAP1 enzyme (Homo sapiens)
EC50: < 10 µM
--
MOLECULE: COc1ccc(NC(=O)c2cc(C)n(C)c2)cc1S(=O)(=O)Nc1c(C)cccc1C [Compound 1009]
TARGET OR SYSTEM: TRAP1 enzyme (Homo sapiens)
EC50: 20 to 100 µM
--
MOLECULE: COc1ccc(NC(=O)c2cc(-c3ccccc3)[nH]n2)cc1S(=O)(=O)Nc1c(C)cccc1C [Compound 1258]
TARGET OR SYSTEM: TRAP1 enzyme (Homo sapiens)
EC50: < 10 µM

# EC50 of N#Cc1ccc(C(=O)Nc2ccc(F)c(S(=O)(=O)Nc3ccc(Cl)cc3)c2)c(C(F)(F)F)n1 [Compound 827] = 20 to 100 µM

----------
# EC50 values compiled below
# TARGET OR SYSTEM: TRAP1 enzyme (Homo sapiens)
# PROTOCOL: Malachite green phosphate assay of TRAP1 ATPase activity
# Type: biochemical
# MEASUREMENT CONDITIONS: TRAP1 ATPase activation, 150 nM Trap1, 20 μM ATP, geometric mean; read-out: Malachite Green Fluor DRC: GeoMean EC50

ITEM SMILES: Cc1ccc(NS(=O)(=O)c2cccc(NC(=O)c3cnc(C(F)(F)F)[nH]3)c2)cc1
EC50: 10 to 20 µM

# EC50 of CC(=O)c1c(C)[nH]c(C(=O)Nc2cccc(S(=O)(=O)N3CCCC3)c2)c1C = 10 to 20 µM

# EC50 of Cc1ccc(NS(=O)(=O)c2cc(NC(=O)c3ncc(-c4ccccc4)o3)ccc2CC(=O)O)cc1 = 20 to 100 µM

# EC50 of COc1ccc(NC(=O)c2nnc(-c3ccccc3)o2)cc1S(=O)(=O)Nc1c(Cl)cccc1Cl = < 10 µM

# EC50 of COc1ccc(NC(=O)c2cnc(-c3ccccc3)o2)cc1S(=O)(=O)Nc1c(Cl)cccc1Cl = 10 to 20 µM

# EC50 of Cc1ccc2c(c1)CCN2S(=O)(=O)c1cccc(NC(=O)c2ocnc2C)c1 = 20 to 100 µM

# EC50 of COc1ccc(NC(=O)c2cnc(-c3ccccc3)[nH]2)cc1S(=O)(=O)N(CCCCCC(=O)O)c1ccc(Br)cc1 = 10 to 20 µM

# EC50 of CCc1ccc(NC(=O)c2cnc(-c3ccccc3)[nH]2)cc1S(=O)(=O)Nc1ccc(Br)cc1 = < 10 µM
